A collection of compounds and their measured pIC50
- TESTED TARGET: MALT1 (Homo sapiens)
- Sequence (Q9UDY8 1-824): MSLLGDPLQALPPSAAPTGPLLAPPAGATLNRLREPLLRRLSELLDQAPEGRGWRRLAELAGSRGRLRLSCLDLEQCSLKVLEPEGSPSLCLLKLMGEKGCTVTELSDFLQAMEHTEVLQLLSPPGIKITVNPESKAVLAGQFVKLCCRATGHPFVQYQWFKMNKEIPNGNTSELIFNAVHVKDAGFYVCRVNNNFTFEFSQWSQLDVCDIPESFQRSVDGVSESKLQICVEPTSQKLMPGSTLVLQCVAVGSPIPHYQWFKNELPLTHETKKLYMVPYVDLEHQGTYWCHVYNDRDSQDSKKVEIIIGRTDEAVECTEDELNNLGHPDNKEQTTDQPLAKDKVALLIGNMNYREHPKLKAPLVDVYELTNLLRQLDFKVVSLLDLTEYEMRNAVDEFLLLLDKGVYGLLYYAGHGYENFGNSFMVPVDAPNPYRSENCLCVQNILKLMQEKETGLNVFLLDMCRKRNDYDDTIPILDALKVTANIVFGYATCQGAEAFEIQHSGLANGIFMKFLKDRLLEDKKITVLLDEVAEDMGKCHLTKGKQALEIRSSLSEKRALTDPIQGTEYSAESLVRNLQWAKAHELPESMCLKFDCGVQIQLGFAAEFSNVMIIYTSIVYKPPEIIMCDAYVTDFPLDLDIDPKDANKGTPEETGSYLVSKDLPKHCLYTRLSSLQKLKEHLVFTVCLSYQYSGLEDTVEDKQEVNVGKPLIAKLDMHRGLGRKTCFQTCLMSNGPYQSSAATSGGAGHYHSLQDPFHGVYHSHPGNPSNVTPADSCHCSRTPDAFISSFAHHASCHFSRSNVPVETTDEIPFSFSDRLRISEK
pIC50: −log10 of the molar value.

> print(dat)
                                test.smiles  observation.type  result
1  Cn1ncc2cccc(NS(=O)(=O)c3ccc(-c4cnc(C(C)(C)O)s4)nc3)c21             pIC50  < 5.60

Req: Requested field: pIC50. Item: `CC(C)c1ccn(-c2ccc(S(=O)(=O)Nc3cccc4cnn(C)c34)cn2)n1`
Resp: < 5.60

Req: Would you kindly share the measured pIC50 for `COc1ccc2cn[nH]c2c1NS(=O)(=O)c1ccc(-n2cc(C(F)(F)F)cn2)nc1` ?
Resp: > 6.40

Req: # get_value(readout='pIC50', item= `[2H]C([2H])([2H])n1ncc2cnc(OC)c(NS(=O)(=O)c3ccc(-n4cc(C(F)(F)F)cn4)nc3)c21` )
Resp: > 6.40

###

# pIC50 per entry
Sequence of the target: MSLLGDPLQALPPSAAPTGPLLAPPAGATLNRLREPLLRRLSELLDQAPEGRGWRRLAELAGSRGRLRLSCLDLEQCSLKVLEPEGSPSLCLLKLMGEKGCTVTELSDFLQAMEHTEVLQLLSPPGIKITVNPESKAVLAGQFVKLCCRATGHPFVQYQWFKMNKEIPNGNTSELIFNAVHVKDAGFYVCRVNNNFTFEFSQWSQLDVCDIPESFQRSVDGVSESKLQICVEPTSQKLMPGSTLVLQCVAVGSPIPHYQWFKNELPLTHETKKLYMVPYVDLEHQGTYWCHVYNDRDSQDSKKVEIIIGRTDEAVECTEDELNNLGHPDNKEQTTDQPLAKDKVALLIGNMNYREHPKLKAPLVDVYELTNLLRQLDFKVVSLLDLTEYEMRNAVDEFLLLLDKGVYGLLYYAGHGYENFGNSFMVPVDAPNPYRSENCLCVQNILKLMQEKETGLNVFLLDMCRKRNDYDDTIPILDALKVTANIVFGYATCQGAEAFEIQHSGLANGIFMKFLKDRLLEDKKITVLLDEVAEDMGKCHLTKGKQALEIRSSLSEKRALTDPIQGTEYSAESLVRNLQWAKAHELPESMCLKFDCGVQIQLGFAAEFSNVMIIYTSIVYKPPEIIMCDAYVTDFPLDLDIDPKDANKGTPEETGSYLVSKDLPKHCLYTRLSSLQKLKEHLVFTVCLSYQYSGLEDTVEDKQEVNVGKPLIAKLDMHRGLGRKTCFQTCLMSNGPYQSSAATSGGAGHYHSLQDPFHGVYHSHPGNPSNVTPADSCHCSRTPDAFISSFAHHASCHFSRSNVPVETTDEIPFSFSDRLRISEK
pIC50: −log10 of the molar value.

Look over these answered cases.
> print(dat)
                                   compound  observation.type  result
1  CC(C)c1ccn(-c2ccc(S(=O)(=O)N(C)c3cccc4cnn(C)c34)cn2)n1 [Example I-171]             pIC50  < 5.60
2  Cn1ncc2cccc(NS(=O)(=O)c3ccc(-c4ccn[nH]4)nc3)c21 [Example I-81]             pIC50  < 5.60
3  COc1ccc2c(F)nn(C)c2c1NS(=O)(=O)c1ccc(-n2cc(Cl)cn2)nc1 [Example I-240]             pIC50  > 6.40
4  CCc1ccc2cnn(C)c2c1NS(=O)(=O)c1ccc(-c2ccnc(C(F)(F)F)c2)nc1 [Example I-46]             pIC50  > 6.40

Req: Field request: pIC50 | item: Cn1ncc2cccc(NS(=O)(=O)c3ccc(-n4cc(C(N)=O)cn4)nc3)c21 [Example I-105]
Resp: < 5.60

Req: Recorded pIC50 for COc1cnn(-c2ccc(S(=O)(=O)Nc3cccc4cnn(C)c34)cn2)c1 [Example I-35] , please?
Resp: < 5.60

Req: Please give the measured pIC50 for this compound: COc1ncc2nnn(C)c2c1NS(=O)(=O)c1ccc(-n2cc(C(F)(F)F)cn2)nc1 [Example I-180]
Resp: 6.00 to 6.40

Req: // returns reported pIC50 for input CCc1ccc2cnn(C)c2c1NS(=O)(=O)c1ccc(-c2ccc(C(=O)OC)c(Cl)c2)nc1 [Example I-45]
Resp: > 6.40
